Molecular target: Adenosine receptor A2b (Homo sapiens, UniProt P29275)
Sequence (P29275 whole entry): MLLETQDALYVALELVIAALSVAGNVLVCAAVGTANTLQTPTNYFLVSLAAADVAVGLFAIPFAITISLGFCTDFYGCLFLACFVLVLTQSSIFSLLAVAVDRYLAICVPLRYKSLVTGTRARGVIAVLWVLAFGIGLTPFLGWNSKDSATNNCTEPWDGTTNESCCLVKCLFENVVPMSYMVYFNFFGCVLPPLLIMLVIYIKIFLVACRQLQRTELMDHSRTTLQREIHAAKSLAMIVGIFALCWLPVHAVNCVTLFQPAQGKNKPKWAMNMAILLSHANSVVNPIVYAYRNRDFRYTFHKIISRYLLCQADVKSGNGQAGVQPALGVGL
Assay: Inhibition of human A2B adenosine receptor transfected in CHO cells assessed as inhibition of NECA-induced cyclic AMP production after 10 mins by competitive protein binding assay
OBSERVED PROPERTY: pIC50
Please treat pIC50 as minus the base-10 logarithm of the molar concentration.

Recorded pIC50, per entry:
| SMILES CODE | OBSERVED PROPERTY | EXPERIMENTAL RESULT |
| --- | --- | --- |
| Nc1nc(Cc2ccccc2)nc2cn(-c3ccccc3)nc12 | pIC50 | 6.38 |
| Cc1nc(N)c2nn(-c3ccccc3)cc2n1 | pIC50 | 6.49 |

Now look at this entry.
INPUT: Fill in the blank: the reported pIC50 of `Nc1nc(-c2ccccc2)nc2cn(-c3ccccc3)nc12` is ____.
OUTPUT: 6.36

---

Target: Adenosine receptor A3 (Homo sapiens) (UniProt P0DMS8)
Sequence (P0DMS8 whole entry): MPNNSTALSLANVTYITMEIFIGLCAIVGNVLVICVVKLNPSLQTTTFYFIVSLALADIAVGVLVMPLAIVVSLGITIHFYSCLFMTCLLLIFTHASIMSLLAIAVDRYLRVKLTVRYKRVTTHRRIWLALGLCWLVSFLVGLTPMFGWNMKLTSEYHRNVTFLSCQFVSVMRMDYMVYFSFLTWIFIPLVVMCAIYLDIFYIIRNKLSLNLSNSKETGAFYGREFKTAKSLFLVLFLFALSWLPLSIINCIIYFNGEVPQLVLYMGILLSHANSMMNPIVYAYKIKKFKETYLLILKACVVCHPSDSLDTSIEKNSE
Assay: Displacement of [125I]AB-MECA from human A3 adenosine receptor expressed in CHO cells at 1 uM after 60 mins by scintillation counting analysis
Assay type: cell-based
OBSERVED PROPERTY: inhibition (%)
Reply numerically in %, unit not repeated.

Recorded inhibition, per entry:
| SMILES CODE | inhibition (%) |
| --- | --- |
| Nc1nc(-c2ccccc2)nc2cn(-c3ccccc3)nc12 | 48 |
| COc1ccc(-n2cc3nc(C)nc(NC(=O)Nc4ccccc4)c3n2)cc1 | 1 |
| Nc1nc(Cc2ccccc2)nc2cn(-c3ccccc3)nc12 | 39 |
| Cc1nc(N)c2nn(-c3ccccc3)cc2n1 | 40 |
| COc1ccc(-n2cc3nc(C)nc(N)c3n2)cc1 | 38 |
| Cc1nc(NC(=O)NCc2ccccc2)c2nn(-c3ccccc3)cc2n1 | 1 |
| COc1ccc(-n2cc3nc(Cc4ccccc4)nc(N)c3n2)cc1 | 45 |
| COc1ccc(-n2cc3nc(C)nc(NC(=O)NCc4ccccc4)c3n2)cc1 | 6 |

Now look at this entry.
INPUT: Form field - read-out: inhibition; system: Adenosine receptor A3 (Homo sapiens) (UniProt P0DMS8); submitted item: `Cc1nc(NC(=O)Nc2ccccc2)c2nn(-c3ccccc3)cc2n1`
OUTPUT: 30

---

Biological target: Adenosine receptor A2a (Homo sapiens, UniProt P29274)
Sequence (P29274 whole entry): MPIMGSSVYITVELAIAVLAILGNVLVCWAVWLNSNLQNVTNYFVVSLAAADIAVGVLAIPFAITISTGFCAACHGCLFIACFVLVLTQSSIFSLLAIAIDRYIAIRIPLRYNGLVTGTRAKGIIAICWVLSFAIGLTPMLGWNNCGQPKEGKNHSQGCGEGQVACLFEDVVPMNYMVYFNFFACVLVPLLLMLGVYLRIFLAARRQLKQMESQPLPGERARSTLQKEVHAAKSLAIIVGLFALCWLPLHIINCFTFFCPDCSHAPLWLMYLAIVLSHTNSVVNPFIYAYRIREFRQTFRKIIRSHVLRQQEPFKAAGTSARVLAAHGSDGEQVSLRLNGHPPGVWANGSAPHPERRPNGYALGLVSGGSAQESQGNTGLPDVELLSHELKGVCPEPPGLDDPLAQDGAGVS
Assay: Displacement of [3H]ZM241385 from human A2A adenosine receptor expressed in CHO cells at 1 uM after 60 mins by scintillation counting analysis
Format: cell-based
Measured inhibition by item

| SMILES CODE | inhibition |
| --- | --- |
| COc1ccc(-n2cc3nc(C)nc(NC(=O)Cc4ccccc4)c3n2)cc1 | 11% |

INPUT: Form field - read-out: inhibition; system: Adenosine receptor A2a (Homo sapiens, UniProt P29274); submitted item: `Cc1nc(N(C(=O)c2ccco2)C(=O)c2ccco2)c2nn(-c3ccccc3)cc2n1`
OUTPUT: 1%

INPUT: Form field - read-out: inhibition; system: Adenosine receptor A2a (Homo sapiens, UniProt P29274); submitted item: `COc1ccc(-n2cc3nc(-c4ccccc4)nc(NC(=O)c4ccccc4)c3n2)cc1`
OUTPUT: 1%

INPUT: Form field - read-out: inhibition; system: Adenosine receptor A2a (Homo sapiens, UniProt P29274); submitted item: `O=C(Nc1nc(-c2ccccc2)nc2cn(-c3ccccc3)nc12)c1ccccc1`
OUTPUT: 5%

INPUT: Form field - read-out: inhibition; system: Adenosine receptor A2a (Homo sapiens, UniProt P29274); submitted item: `Cc1nc(NC(=O)Nc2ccccc2)c2nn(-c3ccccc3)cc2n1`
OUTPUT: 1%

These measurements were taken from ChEMBL document CHEMBL2321860.
